Listed next: entries and their corresponding RP-LC retention time.
# ASSAY_INFO: gradient 5% acetonitrile 3 min, to 50% in 2 min, to 85% in 15 min, held 3 min, 100 µL/min
# CONDITION_DESCRIPTION: column: Zorbax Extend-C18 2.1 x 50 mm; eluents: water / acetonitrile, 0.1% formic acid
Please reply with the bare figure in s and do not write the unit itself.

Some compounds with recorded RP-LC retention time:
# COMPOUND, RP-LC retention time, s
data = [
    ("COc1ccc(-c2nnc(-c3ccc(C)c(S(=O)(=O)N4CCCC4)c3)o2)cc1", 1030),
    ("Cc1nc(N2CCOCC2)c2c(C(=O)Nc3ccc(Br)cc3C)c(C)oc2n1", 909),
    ("Cc1cccc(CC(=O)N2C[C@@H]3C[C@H]2C[C@@H]3NS(=O)(=O)c2ccccc2)c1", 832),
    ("Cc1cc(=O)n(CC(=O)Nc2ccc(F)cc2)c(N2CCCCC2)n1", 635),
    ("O=C(Cn1cccc1-c1nnc(C2CCC2)o1)Nc1ccccc1", 862),
    ("O=C(NCCCN1CCCC1=O)c1c(OCC2CC2)cc(=O)n2c1CCCCC2", 602),
    ("COc1ccc(CCNC(=O)N2CCC(c3nnc(C(F)(F)F)o3)CC2)cc1", 764),
    ("COc1ccc(OCc2nc(CCN(C)C(=O)c3ccco3)no2)cc1", 782),
    ("Cc1cc(NC(=O)Nc2ccc3c(c2)CCN3S(C)(=O)=O)ccc1Br", 943),
    ("COc1cccc(-n2c(=O)c(C(=O)Nc3cc(F)cc(F)c3)c(O)c3cccnc32)c1", 1210),
]

The record that follows has no RP-LC retention time shown yet.
Determine from records and report RP-LC retention time for COc1cccc(CNC(=O)Cn2cnc3nc(N4CCC(C(=O)NC5CC5)CC4)sc3c2=O)c1 646

Data origin, for the record: the METLIN SMRT retention time set (Domingo-Almenara et al. 2019)
